fraction unbound values for the compounds below.
# Test Summary: Fraction unbound ligand in mouse plasma protein
# Type: ADME, cell-free
Lab note: jot the number down without any unit.

> print(dat)
                               query.smiles    assay.endpoint  reading
1  Cc1ccc(Oc2ccc(Nc3ncnc4cccc(O[C@H](C)C(=O)N(C)C)c34)cc2C)cn1  fraction unbound    0.011

# evaluate next
Ask: Recorded fraction unbound for `Cc1ccc(Oc2ccc(Nc3ncnc4cccc(O[C@H](C)C(=O)N(C)CCO)c34)cc2C)cn1` , please?
Result: 0.025

====

# Test Summary: Partition coefficient, log D at pH 7.4
# Assay type: physicochemical
# Test Settings: octanol/water
logD values for the compounds below.
Lab note: jot the number down without any unit.

> print(dat)
                               query.smiles  assay.endpoint  reading
1  C[C@@H](Oc1cccc2ncnc(Nc3ccc(OCc4ccccn4)c(Cl)c3)c12)C(=O)N(C)C            logD      3.7

# evaluate next
Ask: Recorded logD for `Cc1ccc(Oc2ccc(Nc3ncnc4cccc(O[C@H](C)C(=O)N(C)CCO)c34)cc2C)cn1` , please?
Result: 3.8

====

# Test Summary: Bioavailability in Han Wistar rat at 2 mg/kg, iv and 5 mg/kg, po
# Type: ADME, organism-based
# Test Settings: in vivo
bioavailability values for the molecules below.
Note: unit % is implicit; provide only the numeric part.

> print(dat)
                               query.smiles  reading
1  Cc1ccc(Oc2ccc(Nc3ncnc4cccc(O[C@H](C)C(=O)N(C)C)c34)cc2C)cn1       67

# evaluate next
Ask: Recorded bioavailability for `Cc1ccc(Oc2ccc(Nc3ncnc4cccc(O[C@H](C)C(=O)N(C)CCO)c34)cc2C)cn1` , please?
Result: 34

====

# System Name: Voltage-gated inwardly rectifying potassium channel KCNH2 (Homo sapiens, UniProt Q12809)
# Sequence (Q12809 whole entry): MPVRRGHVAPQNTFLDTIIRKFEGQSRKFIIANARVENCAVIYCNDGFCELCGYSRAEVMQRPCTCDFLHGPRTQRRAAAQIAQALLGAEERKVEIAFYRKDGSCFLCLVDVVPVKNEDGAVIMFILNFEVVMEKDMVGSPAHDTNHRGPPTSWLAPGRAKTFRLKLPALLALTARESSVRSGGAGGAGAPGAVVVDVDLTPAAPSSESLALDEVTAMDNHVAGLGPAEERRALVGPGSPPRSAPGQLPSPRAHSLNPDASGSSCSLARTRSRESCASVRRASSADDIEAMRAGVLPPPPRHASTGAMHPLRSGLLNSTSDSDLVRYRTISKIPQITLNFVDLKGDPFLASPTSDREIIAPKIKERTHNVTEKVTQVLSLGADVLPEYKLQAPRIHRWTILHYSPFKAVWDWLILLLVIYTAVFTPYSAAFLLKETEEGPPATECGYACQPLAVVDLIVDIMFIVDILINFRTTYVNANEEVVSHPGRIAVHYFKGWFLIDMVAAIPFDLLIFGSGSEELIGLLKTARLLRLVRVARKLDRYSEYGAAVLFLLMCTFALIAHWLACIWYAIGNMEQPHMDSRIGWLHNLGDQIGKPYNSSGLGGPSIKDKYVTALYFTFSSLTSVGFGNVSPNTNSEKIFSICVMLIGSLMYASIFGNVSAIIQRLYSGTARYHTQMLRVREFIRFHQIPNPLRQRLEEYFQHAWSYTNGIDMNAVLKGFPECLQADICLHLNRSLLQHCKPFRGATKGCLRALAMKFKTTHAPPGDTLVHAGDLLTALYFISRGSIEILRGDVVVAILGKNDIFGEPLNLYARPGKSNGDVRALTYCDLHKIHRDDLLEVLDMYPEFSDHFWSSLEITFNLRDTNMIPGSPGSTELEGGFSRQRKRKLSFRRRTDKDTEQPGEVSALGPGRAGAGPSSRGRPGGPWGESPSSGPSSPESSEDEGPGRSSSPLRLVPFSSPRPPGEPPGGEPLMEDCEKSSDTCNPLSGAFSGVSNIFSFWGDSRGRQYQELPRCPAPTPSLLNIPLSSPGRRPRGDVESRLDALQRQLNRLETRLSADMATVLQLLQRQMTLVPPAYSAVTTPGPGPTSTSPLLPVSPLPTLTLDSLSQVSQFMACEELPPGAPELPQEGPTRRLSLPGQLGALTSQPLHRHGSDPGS
pIC50: −log10 of the molar value.
Response key: true means pIC50 >= 5; false means pIC50 < 5.

> print(dat)
                               query.smiles  assigned.label
1  CNC(=O)[C@@H](C)Oc1cccc2ncnc(Nc3ccc(OCc4ccccn4)c(Cl)c3)c12           false
2  C[C@@H](Oc1cccc2ncnc(Nc3ccc(OCc4ccccn4)c(Cl)c3)c12)C(=O)N(C)C           false

Ask: Could you tell me if the measured pIC50 of `CN1CCC(Oc2cccc3ncnc(Nc4ccc(OCc5ccccn5)c(Cl)c4)c23)CC1` reaches 5 or more?
Result: true

====

# Test Summary: Solubility in aqueous phosphate buffer at pH 7.4 after 24 hrs
# Type: physicochemical
solubility at 24 h values for the compounds below.
Note: unit µM is implicit; provide only the numeric part.

Ask: Recorded solubility at 24 h for `Cc1ccc(Oc2ccc(Nc3ncnc4cccc(O[C@H](C)C(=O)N(C)CCO)c34)cc2C)cn1` , please?
Result: 66

Ask: Now the same for `Cc1ccc(Oc2ccc(Nc3ncnc4cccc(O[C@H](C)C(=O)N(C)C)c34)cc2C)cn1`
Result: 28

Ask: Now the same for `C[C@@H](Oc1cccc2ncnc(Nc3ccc(OCc4ccccn4)c(Cl)c3)c12)C(=O)N(C)C`
Result: 6

====

# System Name: Receptor tyrosine-protein kinase erbB-2 (Homo sapiens, UniProt P04626)
# Sequence (P04626 whole entry): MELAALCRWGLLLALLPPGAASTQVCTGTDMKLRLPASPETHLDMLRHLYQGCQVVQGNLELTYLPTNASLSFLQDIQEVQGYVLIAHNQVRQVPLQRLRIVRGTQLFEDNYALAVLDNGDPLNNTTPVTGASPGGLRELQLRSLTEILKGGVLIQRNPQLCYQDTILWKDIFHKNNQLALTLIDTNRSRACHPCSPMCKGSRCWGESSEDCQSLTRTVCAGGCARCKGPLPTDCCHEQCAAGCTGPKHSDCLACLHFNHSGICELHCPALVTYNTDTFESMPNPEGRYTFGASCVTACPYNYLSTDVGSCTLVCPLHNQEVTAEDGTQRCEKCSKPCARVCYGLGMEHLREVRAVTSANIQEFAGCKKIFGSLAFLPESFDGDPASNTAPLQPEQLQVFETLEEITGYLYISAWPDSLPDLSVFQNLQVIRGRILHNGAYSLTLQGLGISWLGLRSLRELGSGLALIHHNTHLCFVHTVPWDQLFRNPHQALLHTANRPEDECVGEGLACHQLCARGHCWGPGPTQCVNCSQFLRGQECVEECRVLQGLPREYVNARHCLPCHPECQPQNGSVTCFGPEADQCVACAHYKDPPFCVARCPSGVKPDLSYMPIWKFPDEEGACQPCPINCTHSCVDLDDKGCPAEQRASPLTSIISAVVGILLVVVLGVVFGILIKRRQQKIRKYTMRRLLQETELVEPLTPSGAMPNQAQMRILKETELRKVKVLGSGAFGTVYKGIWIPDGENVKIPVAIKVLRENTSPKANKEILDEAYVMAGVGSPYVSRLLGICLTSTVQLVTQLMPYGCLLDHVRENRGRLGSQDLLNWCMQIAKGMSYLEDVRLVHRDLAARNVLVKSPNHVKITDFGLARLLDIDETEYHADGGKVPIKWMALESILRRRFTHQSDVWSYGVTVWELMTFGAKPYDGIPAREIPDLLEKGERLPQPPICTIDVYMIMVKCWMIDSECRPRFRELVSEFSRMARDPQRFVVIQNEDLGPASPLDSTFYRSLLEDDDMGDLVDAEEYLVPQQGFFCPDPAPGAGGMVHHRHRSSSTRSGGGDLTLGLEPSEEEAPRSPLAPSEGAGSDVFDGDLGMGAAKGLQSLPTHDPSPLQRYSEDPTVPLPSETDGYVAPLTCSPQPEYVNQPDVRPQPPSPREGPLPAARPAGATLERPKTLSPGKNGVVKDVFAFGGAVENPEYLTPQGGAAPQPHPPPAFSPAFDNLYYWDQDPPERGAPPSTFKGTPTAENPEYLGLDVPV
# Test Summary: Inhibition of ebrB2
Assay Endpoint: pIC50
Units for pIC50: none; it is -log10 of a concentration expressed in mol/L.

Ask: Recorded pIC50 for `Cc1ccc(Oc2ccc(Nc3ncnc4cccc(O[C@H](C)C(=O)N(C)CCO)c34)cc2C)cn1` , please?
Result: 8.70
